The following molecules are listed with their measured AUC25 values.
System: Mycobacterium tuberculosis Erdman (autoluminescent)
measurement-protocol: AUC25, normalised area under dose response up to IC25 (three-drug combination) (fraction (0-1)); higher = more potent at low dose
experimental-setup: in vitro model: dormancy (butyrate + nitrate, low O2); time point: constant (~7 days, model-specific)
Just the number, please, no unit attached.

Some molecules with recorded AUC25:
CC(C)/N=c1\cc2n(-c3ccc(Cl)cc3)c3ccccc3nc-2cc1Nc1ccc(Cl)cc1 [clofazimine] + COc1c(N2C[C@@H]3CCCN[C@@H]3C2)c(F)cc2c(=O)c(C(=O)O)cn(C3CC3)c12 [moxifloxacin] + NC(=O)c1cnccn1 [pyrazinamide] ... 0.113
CC(C)/N=c1\cc2n(-c3ccc(Cl)cc3)c3ccccc3nc-2cc1Nc1ccc(Cl)cc1 [clofazimine] + COc1c(N2C[C@@H]3CCCN[C@@H]3C2)c(F)cc2c(=O)c(C(=O)O)cn(C3CC3)c12 [moxifloxacin] + CO[C@H]1/C=C/O[C@@]2(C)Oc3c(C)c(O)c4c(O)c(c(/C=N/N5CCN(C6CCCC6)CC5)c(O)c4c3C2=O)NC(=O)/C(C)=C\C=C\[C@H](C)[C@H](O)[C@@H](C)[C@@H](O)[C@@H](C)[C@H](OC(C)=O)[C@@H]1C [rifapentine] ... 0.0884
COc1nc2ccc(Br)cc2cc1[C@@H](c1ccccc1)[C@@](O)(CCN(C)C)c1cccc2ccccc12 [bedaquiline] + NNC(=O)c1ccncc1 [isoniazid] + NC(=O)c1cnccn1 [pyrazinamide] ... 0.0789
COc1nc2ccc(Br)cc2cc1[C@@H](c1ccccc1)[C@@](O)(CCN(C)C)c1cccc2ccccc12 [bedaquiline] + CC(C)/N=c1\cc2n(-c3ccc(Cl)cc3)c3ccccc3nc-2cc1Nc1ccc(Cl)cc1 [clofazimine] + CO[C@H]1/C=C/O[C@@]2(C)Oc3c(C)c(O)c4c(O)c(c(/C=N/N5CCN(C)CC5)c(O)c4c3C2=O)NC(=O)/C(C)=C\C=C\[C@H](C)[C@H](O)[C@@H](C)[C@@H](O)[C@@H](C)[C@H](OC(C)=O)[C@@H]1C [rifampicin] ... 0.0659
NNC(=O)c1ccncc1 [isoniazid] + O=[N+]([O-])c1cn2c(n1)OC[C@@H](OCc1ccc(OC(F)(F)F)cc1)C2 [pretomanid] + NC(=O)c1cnccn1 [pyrazinamide] ... 0.0747

Now, please, on to the next molecule.
Reported AUC25, molecule COc1c(N2C[C@@H]3CCCN[C@@H]3C2)c(F)cc2c(=O)c(C(=O)O)cn(C3CC3)c12 [moxifloxacin] + O=[N+]([O-])c1cn2c(n1)OC[C@@H](OCc1ccc(OC(F)(F)F)cc1)C2 [pretomanid] + CO[C@H]1/C=C/O[C@@]2(C)Oc3c(C)c(O)c4c(O)c(c(/C=N/N5CCN(C)CC5)c(O)c4c3C2=O)NC(=O)/C(C)=C\C=C\[C@H](C)[C@H](O)[C@@H](C)[C@@H](O)[C@@H](C)[C@H](OC(C)=O)[C@@H]1C [rifampicin] : ____
0.0676

The origin of these recorded values is the supplement of paper PMC8617591.
